# System: HCT-15 colon
# assayName: NCI tumour cell line growth inhibition, 48 h
assayMetric: GI50

molecule	assayTarget	assayMetric	result
CC1=C(C(=O)Nc2ccc(F)c(Cl)c2)C(c2cccc(Cl)c2)NC(=O)N1 (centres undefined)	HCT-15 colon	GI50	20.6 µM
CNCCNc1nc2ccccc2c2c(=O)c3cccc(OC)c3sc12	HCT-15 colon	GI50	0.829 µM
CC(O)CN(CCN(CC(C)O)CC(C)O)CC(C)O.O=[N+]([O-])O.[Cu+2] (centres undefined)	HCT-15 colon	GI50	> 100 µM
N#C/C(=C/N1CCN(C(=O)c2ccco2)C1=S)C(N)=O	HCT-15 colon	GI50	3.82 µM
CC(C)(C)CC(C)(C)Cc1ccc(OCCOCC[N+](C)(C)Cc2ccccc2)cc1	HCT-15 colon	GI50	14.4 µM
NC(=O)NC(=O)CI	HCT-15 colon	GI50	1.68 µM
CSC(=S)N/N=C(\C)c1ccccn1	HCT-15 colon	GI50	0.16 µM
CC1=C(C)C(=O)C(C(C)C2=C(C)C(=O)C(C)=C(C)C2=O)=C(C)C1=O	HCT-15 colon	GI50	15.2 µM
O=[N+]([O-])c1ccc2[nH]cc(-c3c4ccccc4cc4[nH]c5ccc([N+](=O)[O-])cc5c34)c2c1	HCT-15 colon	GI50	1.88 µM
O=C1c2cccnc2-c2nc(-c3ccc([N+](=O)[O-])cc3)cc3c2c1nc1ccccc13	HCT-15 colon	GI50	1.97 µM
Oc1ccc2ccccc2c1/C=N\Nc1ccccn1	HCT-15 colon	GI50	0.511 µM
N#Cc1c2ccccc2c2nnc3cc(Cl)c(Cl)cc3n12	HCT-15 colon	GI50	33 µM
COC(=O)c1c(-c2ccccc2)csc1NC(=O)c1c(-c2ccccc2)noc1C	HCT-15 colon	GI50	0.0809 µM
O=C(NC(=S)NS(=O)(=O)c1ccc(N2N=C3c4ccccc4CC3C2c2cccs2)cc1)c1ccccc1 (centres undefined)	HCT-15 colon	GI50	30.2 µM
Cc1ccc(Cl)cc1Nc1nc(C(F)(F)F)ccc1C(=O)Oc1ccc(Cl)cc1	HCT-15 colon	GI50	10.9 µM
O=C1c2cc3c(cc2-c2c1c1ccc([N+](=O)[O-])cc1c(=O)n2CCCCl)OCO3	HCT-15 colon	GI50	2.09 µM
C[n+]1c2ccccc2c(NC2CCNCC2)c2[nH]c3ccccc3c21	HCT-15 colon	GI50	10.3 µM
Cc1ccc(/C=C(\C#N)n2nnc3cc(F)c(F)cc32)cc1	HCT-15 colon	GI50	0.651 µM
COc1ccc(C2CC(c3cc(OC)c(OC)c(OC)c3)=NN2)cc1 (centres undefined)	HCT-15 colon	GI50	3.48 µM

* * *

# System: MOLT-4 leukemia
# assayName: NCI tumour cell line growth inhibition, 48 h
Quick list: GI50 per entry.

compound	GI50
NC(N)=Nc1ccc(-n2nc(C(F)(F)F)cc2-c2ccc3c(ccc4ccccc43)c2)cc1	2.35 µM
CCN1C(=O)N(c2c(F)c(OC)cc(OC)c2F)Cc2cnc3[nH]c(CN4CCOCC4)cc3c21	2.56 µM
O=C1c2cccnc2-c2nc(-c3ccc([N+](=O)[O-])cc3)cc3c2c1nc1ccccc13	53.5 µM
CCCNc1nc(-c2ccc(OC)cc2)nc2ccccc12	46.4 µM
CC(CN(CP(=O)([O-])[O-])CP(=O)([O-])[O-])N(CP(=O)([O-])[O-])CP(=O)([O-])[O-].N[C@@H]1CCCC[C@@H]1N.[Pt+2] (configuration not stated)	> 100 µM
CC(O)CN(CCN(CC(C)O)CC(C)O)CC(C)O.O=[N+]([O-])O.[Cu+2] (configuration not stated)	> 100 µM
COC(=O)c1oc2c(C(=O)/C=C/c3ccc(OC)cc3)c(OCCCN3CCCCC3)ccc2c1C	1.6 µM

The reported numbers originate from PubChem BioAssay (NCI).
